Target: delta opioid receptor (Rattus norvegicus, UniProt P33533)
Sequence (P33533 whole entry): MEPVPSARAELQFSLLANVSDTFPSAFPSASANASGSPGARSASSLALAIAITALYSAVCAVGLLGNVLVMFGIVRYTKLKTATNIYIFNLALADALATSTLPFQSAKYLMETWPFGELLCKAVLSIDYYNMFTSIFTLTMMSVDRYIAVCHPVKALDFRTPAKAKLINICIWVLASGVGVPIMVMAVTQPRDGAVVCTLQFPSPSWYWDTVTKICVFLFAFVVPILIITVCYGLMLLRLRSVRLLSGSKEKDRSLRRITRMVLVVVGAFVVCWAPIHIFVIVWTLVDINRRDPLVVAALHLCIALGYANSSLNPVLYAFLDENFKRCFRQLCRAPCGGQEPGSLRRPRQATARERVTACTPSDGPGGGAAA
Test: Rat Brain Delta Opioid Receptor Binding Assay
Conditions: rat forebrain membranes; [3H]DPDPE or [3H]naltrindole, 25° C., 2.5 h
measuredMetric: Ki (nM)
Record the value in nM, omitting the unit from your answer.

Recorded Ki for O=C(c1ccc2c(c1)Oc1ccccc1N2C1CCN(Cc2ccccn2)CC1)N1CC[C@H](O)C1 [Compound 15r] with delta opioid receptor (Rattus norvegicus, UniProt P33533), please?
203

Further, for `CCNC(=O)c1ccc2c(c1)Sc1ccccc1N2C1CCN(Cc2cccs2)CC1` ?
784

Further, for COc1cccc2c1Oc1cc(-c3ccncc3)ccc1N2C1CCNCC1 (single isomer, unassigned) ?
589

Further, for O=C(c1ccc2c(c1)Oc1ccccc1N2C1CCN(Cc2ccoc2)CC1)N1CC[C@H](O)C1 [Compound 16r] ?
189

Further, for `CC(=O)Nc1ccccc1-c1ccc2c(c1)Sc1ccccc1N2C1CCN(Cc2ccccn2)CC1` ?
255

Further, for `c1ccc(CN2CCC(N3c4ccccc4Oc4cc(-c5ccncc5)ccc43)CC2)nc1` ?
1200

Further, for `CCN(CC)C(=O)c1ccc2c(c1)Oc1ccccc1N2C1CCN(Cc2nccs2)CC1` ?
300

Further, for CCN(CC)C(=O)c1ccc2c(c1)Oc1ccccc1N2C1CCN(Cc2ccoc2)CC1 [Compound 10r] ?
655
